Source listed as patent US20200317817A1.

Biological target: T1, recombinant N-terminal extracellular domain of the human PTH1R receptor (human, UniProt Q03431 27-188, limits assumed)
T1 construct: domain: N-terminal extracellular domain; Bought reagent; also called N-ECD PTH1R; PTH1R N-terminal ECD
T1 sequence (looked up): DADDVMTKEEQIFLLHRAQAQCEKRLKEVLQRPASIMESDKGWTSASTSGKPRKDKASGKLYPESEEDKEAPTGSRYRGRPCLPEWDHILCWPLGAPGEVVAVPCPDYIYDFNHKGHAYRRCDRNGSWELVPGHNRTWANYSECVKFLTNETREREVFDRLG
Assay: SPR, IgG captured, ECD injected
Reported Endpoint: kon (M⁻¹ s⁻¹)
Value expressed in M⁻¹ s⁻¹; do not type the unit.

XPA.85.341 (antibody, V domains shown, Light-chain-shuffled variant of XPA.85.017) VH: EVQLVETGGGVVRPGGSLRLSCAASGFTFSSSAMSWVRQTPGKELQWVSAITPGGEGTYYADVVKGRFTISRDNSKDTLYLQMDSLRAEDTAVYYCARDLYGSYGDAFDIWGQGTLVTVSS VL: SYELTQPSSVSVSPGQTASITCSGDKLGEKYASWYQQKPGQSPVLVMFEDTKRPSGIPERFSGSNSGNTATLTISGTQAEDEADYYCQAWDSSWVFGGGTQLTVL = 1.9e+06

Proceed to the following item.
Give the reported kon for this binder. XPA.85.343 (antibody, V domains shown, Light-chain-shuffled variant of XPA.85.012) VH: QMQLVQSGAEVKKPGSSVKVSCKASGGTFSSYAISWVRQAPGQGLEWMGGIIPIFGTANYAQKFQGRVTITADESTSTAYMELSSLRSEDTAVYYCARGYVVARLWGQGTLVTVSS VL: DVVMTQTPLSLSVTPGQPASISCKSSQSLLHIDGRTYLYWYLQKAGQPPQLLIYEVSNRFSGVPDRFSGSGSGTDFTLKISRVEAEDVGVYYCMQSIHFPLTFGGGTKLEIK
1.1e+06
